Parameter: IC50. Scope: all listed entries.
- System: U87-MG cell line of overexpressed mutant IDH2 (R140Q) (Homo sapiens, UniProt P48735, R140Q)
- Construct: expressed in transfected cells
- Sequence (P48735 40-452 R140Q): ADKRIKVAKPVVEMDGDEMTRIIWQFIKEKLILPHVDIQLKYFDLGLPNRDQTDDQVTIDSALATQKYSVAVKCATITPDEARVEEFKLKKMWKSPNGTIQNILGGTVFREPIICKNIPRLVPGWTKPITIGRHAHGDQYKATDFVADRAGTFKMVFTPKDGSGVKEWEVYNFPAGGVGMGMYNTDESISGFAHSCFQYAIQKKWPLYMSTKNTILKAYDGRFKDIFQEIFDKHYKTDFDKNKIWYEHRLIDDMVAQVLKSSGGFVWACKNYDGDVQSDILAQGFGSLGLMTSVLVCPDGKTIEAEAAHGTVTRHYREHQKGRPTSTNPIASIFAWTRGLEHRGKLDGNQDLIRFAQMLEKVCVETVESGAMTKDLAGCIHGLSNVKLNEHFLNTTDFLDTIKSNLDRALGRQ
- Assay protocol: Cell activity in vitro: 2-HG in culture supernatant of U87-MG (IDH2-R140Q) cells by LC-MS/MS
- Format: cell-based
- Measurement setup: U87-MG (IDH2-R140Q) cells, 72 hours, 2-HG in supernatant; read-out: IC50 (2-HG remaining compared to untreated)
- Description: 1.2 Cells: human glioblastoma cell line U87-MG, purchased from the American Type Culture Collection (ATCC); […] Cell passage: The above-mentioned recovered cells were transferred to a 50 mL sterile centrifuge tube, centrifuged at 1000 rpm for 5 minutes, and the medium was discarded. The cells were resuspended evenly and counted. […] After cells grown to a relatively high density in the culture dish, the cells were trypsinized, resuspended in medium (MEM+10% FBS), and counted. […]

Use the examples below as a reference point.
INSERT INTO assay_data (structure, endpoint_name, recorded_value) VALUES
  ('CC(C)(O)/C=C/c1nc(Nc2ccnc(C(F)(F)F)c2)nc(-c2cccc(C(F)(F)F)n2)n1', 'IC50', '33.1 nM'),
  ('FC(F)(F)COc1nc(Nc2ccnc(C(F)(F)F)c2)nc(-c2cccc(C(F)(F)F)n2)n1', 'IC50', '9.6 nM'),
  ('CN(C)Nc1nc(Nc2ccnc(C(F)(F)F)c2)nc(-c2cccc(C(F)(F)F)n2)n1', 'IC50', '17.1 nM'),
  ('FC1(F)CCCN(c2nc(Nc3ccnc(C(F)(F)F)c3)nc(-c3cccc(C(F)(F)F)n3)n2)C1', 'IC50', '27 nM'),
  ('CC(C)ONc1nc(Nc2ccnc(C(F)(F)F)c2)nc(-c2cccc(C(F)(F)F)n2)n1', 'IC50', '31.2 nM'),
  ('OC1(C(F)(F)F)CCN(c2nc(Nc3ccnc(C(F)(F)F)c3)nc(-c3cccc(C(F)(F)F)n3)n2)CC1', 'IC50', '59.1 nM');

Request the reported IC50 associated with CC(C)(C)ONc1nc(Nc2ccnc(C(F)(F)F)c2)nc(-c2cccc(C(F)(F)F)n2)n1
25.1 nM

Request the reported IC50 associated with OC1CN(c2nc(Nc3ccnc(C(F)(F)F)c3)nc(-c3cccc(C(F)(F)F)n3)n2)C1
36.1 nM

* * *

- System: U87-MG (IDH2-R140Q) subcutaneous xenograft tumor
- Assay protocol: Subcutaneous xenograft tumor caused by U87-MG (IDH2-R140Q) mutant cells in vivo: intratumor 2-HG
- Parameters: species or system BALB/c nude mice
- Measurement setup: 6.25 mg/kg, intragastric, 10 days, mean, relative to U87-MG (IDH2-R140Q) control group
- Description: 1.2 Animals: BALB/c nude mice, 6-7 weeks old, female, 18-22 g, purchased from Nanjing Jinlaichang Company. U87-MG (IDH2-R140Q) cells and U87-MG cells (wild type) were expanded, and cells in logarithmic growth phase were used for tumor inoculation in vivo. […] The 2-HG concentration in the homogenate of each animal tumor in each group was determined by LC-MS/MS. […]
Endpoint name: Intratumor 2-HG(%) after 10 days of administration
# number only, unit % dropped from output

What is its Intratumor 2-HG(%) after 10 days of administration for U87-MG (IDH2-R140Q) subcutaneous xenograft tumor? Entry: FC(F)(F)c1cc(Nc2nc(OCC(F)(F)C(F)(F)F)nc(-c3cccc(C(F)(F)F)n3)n2)ccn1
17

Hello, I am looking for reported Intratumor 2-HG(%) after 10 days of administration with U87-MG (IDH2-R140Q) subcutaneous xenograft tumor for N#C[C@H]1CCN(c2nc(Nc3ccnc(C(F)(F)F)c3)nc(-c3cccc(C(F)(F)F)n3)n2)C1 . Could you help?
38

GET /values?readout=Intratumor 2-HG(%) after 10 days of administration&system=U87-MG (IDH2-R140Q) subcutaneous xenograft tumor&item= CC(C)(O)CNc1nc(Nc2ccnc(C(F)(F)F)c2)nc(-c2cccc(C(F)(F)F)n2)n1 [AG-221, reference compound]
58

Please tell me: Intratumor 2-HG(%) after 10 days of administration of O[C@H]1CN(c2nc(Nc3ccnc(C(F)(F)F)c3)nc(-c3cccc(C(F)(F)F)n3)n2)C[C@@H]1F , system U87-MG (IDH2-R140Q) subcutaneous xenograft tumor?
67

// lookup Intratumor 2-HG(%) after 10 days of administration | system=U87-MG (IDH2-R140Q) subcutaneous xenograft tumor | key= FC(F)(F)c1cc(Nc2nc(-c3cccc(C(F)(F)F)n3)nc(N3CC(F)(F)C(F)(F)C3)n2)ccn1
1
